Each recorded value in this set is attributed to ChEMBL document CHEMBL3414543.

Target: Polyunsaturated fatty acid 5-lipoxygenase (Homo sapiens)
Sequence (P09917 whole entry): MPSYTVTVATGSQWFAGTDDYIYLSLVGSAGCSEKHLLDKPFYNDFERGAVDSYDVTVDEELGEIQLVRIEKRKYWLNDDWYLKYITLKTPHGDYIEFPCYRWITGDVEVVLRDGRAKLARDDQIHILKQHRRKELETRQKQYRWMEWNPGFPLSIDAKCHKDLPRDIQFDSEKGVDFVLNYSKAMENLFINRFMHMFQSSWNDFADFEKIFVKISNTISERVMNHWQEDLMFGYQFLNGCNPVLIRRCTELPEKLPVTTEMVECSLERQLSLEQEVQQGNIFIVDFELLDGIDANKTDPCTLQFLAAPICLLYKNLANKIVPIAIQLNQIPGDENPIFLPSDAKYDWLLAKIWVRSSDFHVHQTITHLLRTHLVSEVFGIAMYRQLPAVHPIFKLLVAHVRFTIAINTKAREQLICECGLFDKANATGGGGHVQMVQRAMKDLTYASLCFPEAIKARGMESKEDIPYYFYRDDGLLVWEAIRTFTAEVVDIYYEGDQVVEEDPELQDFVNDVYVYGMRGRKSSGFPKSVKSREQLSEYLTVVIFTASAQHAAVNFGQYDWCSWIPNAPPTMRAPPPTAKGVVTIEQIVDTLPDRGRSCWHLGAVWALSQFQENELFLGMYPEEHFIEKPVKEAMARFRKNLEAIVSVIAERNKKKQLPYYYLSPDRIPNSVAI
Assay: Inhibition of 5-LOX in A23187-stimulated human blood PMNL assessed as reduction in lipoxygenase products formation pre-incubated for 15 mins followed by stimulation with A23187 for 10 mins by RP-HPLC based cell based assay
Kindly apply the following: met if IC50 is less than 300 nM, not met in every other case.

{"item smiles": "CCCCCCCCCCCCCCCC1=C(O)C(=O)C=C(OC)C1=O", "label value": "not met"}
{"item smiles": "COC1=CC(=O)C(OC)=C(C/C=C(\\C)CCC=C(C)C)C1=O", "label value": "not met"}
{"item smiles": "COC1=CC(=O)C(O)=C(C/C=C(\\C)CCC=C(C)C)C1=O", "label value": "not met"}
{"item smiles": "CCCCCCCCCCCC1=C(OC)C(=O)C=C(OC)C1=O", "label value": "met"}
{"item smiles": "CCCCCCC1=C(OC)C(OC)=CC(=O)C1=O", "label value": "not met"}
{"item smiles": "COC1=CC(=O)C(O)=C(C/C=C(\\C)CC/C=C(\\C)CCC=C(C)C)C1=O", "label value": "not met"}
{"item smiles": "CCCCCCC1=C(O)C(=O)C=C(O)C1=O", "label value": "not met"}
{"item smiles": "CCCCCCCCCCCCCC1=C(O)C(=O)C=C(O)C1=O", "label value": "not met"}
{"item smiles": "CCCCCCCCCCCCCC1=C(OC)C(=O)C=C(OC)C1=O", "label value": "met"}
